Let's look at some binders and their measured pKd.
Experimental target: T1, hCEACAM5, human CEACAM5 ECD (35-685) (human, UniProt P06731 35-685)
T1 construct: produced in HEK293; also called human CEACAM5 protein; human CEACAM5 extracellular domain
T1 sequence: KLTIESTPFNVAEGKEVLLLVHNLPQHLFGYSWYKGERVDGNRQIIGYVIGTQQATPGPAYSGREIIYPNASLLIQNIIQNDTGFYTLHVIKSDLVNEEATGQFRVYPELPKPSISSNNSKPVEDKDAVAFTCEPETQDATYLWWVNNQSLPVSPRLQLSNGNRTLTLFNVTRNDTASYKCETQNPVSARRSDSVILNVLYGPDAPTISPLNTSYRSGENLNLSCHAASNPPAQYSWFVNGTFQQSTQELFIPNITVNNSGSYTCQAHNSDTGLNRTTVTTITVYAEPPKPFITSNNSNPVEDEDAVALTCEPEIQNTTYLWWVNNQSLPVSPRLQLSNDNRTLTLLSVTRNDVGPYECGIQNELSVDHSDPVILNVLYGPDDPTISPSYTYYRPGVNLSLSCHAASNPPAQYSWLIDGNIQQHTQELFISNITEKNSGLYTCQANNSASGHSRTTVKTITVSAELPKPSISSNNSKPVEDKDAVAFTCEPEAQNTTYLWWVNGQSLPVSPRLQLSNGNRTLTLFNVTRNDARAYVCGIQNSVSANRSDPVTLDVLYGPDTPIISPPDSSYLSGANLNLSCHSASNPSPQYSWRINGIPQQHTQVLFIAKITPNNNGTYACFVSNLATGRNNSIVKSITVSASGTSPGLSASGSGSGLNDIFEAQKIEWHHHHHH
Procedure summary: SPR (BIAcore 2000), mAb captured by anti-human Fc, antigen injected 1-500 nM
Reminder that pKd means the negative base-10 logarithm of the concentration expressed in mol/L.

Query: Quickly give me recorded pKd for huMAb2-2 (antibody, V domains shown, Humanized MAb2 (VL1a + VH1a) fused to human IgG1 and human Ckappa constant domains; also called MAb2_VL1aVH1a-IgG1; MA2_VL1aVH1a-IgG1) VH: EVQLQESGPGLVKPGGSLSLSCAASGFVFSSYDMSWVRQTPERGLEWVAYISSGGGITYAPSTVKGRFTVSRDNAKNTLYLQMNSLTSEDTAVYYCAAHYFGSSGPFAYWGQGTLVTVSS VL: DIQMTQSPASLSASVGDRVTITCRASENIFSYLAWYQQKPGKSPKLLVYNTKTLAEGVPSRFSGSGSGTDFSLTISSLQPEDFATYYCQHHYGTPFTFGSGTKLEIK
Reply: 7.61

Query: State, in one line, measured pKd of chMAb2 (antibody, human IgG1, kappa, V domains shown, Chimeric, human IgG1, Ck isotype; also called MAb2-IgG1; chimeric MAb2) VH: EVQLQESGGVLVKPGGSLKLSCAASGFVFSSYDMSWVRQTPEKRLEWVAYISSGGGITYFPDTVQGRFTVSRDNAKNTLYLQMNSLKSEDTAIYYCAAHYFGSSGPFAYWGQGTLVTVSA VL: DIQMTQSPASLSASVGETVTITCRASENIFSYLAWYQQKQGKSPQLLVYNTKTLAEGVPSRFSGSGSGTQFSLKINSLQPEDFGSYYCQHHYGTPFTFGSGTKLEIKR
Reply: 8.00
